System: A2780
Assay: Anti-proliferative effect (CellTiter-Glo, 72 h), A2780
Type: cell-based
Conditions: A2780 cells, median, read-out: IC50 antiproliferation assay A2780 [M] (median)
Protocol: Assessment of the Anti-Proliferative Effect of Compounds in Different Cell Lines The impact of compounds on the proliferation of different cell lines was assessed using the CellTiter-Glo® Luminescent Cell Viability reagent from Promega (G7573). […] After 72 h incubation, the treated plates were measured in the same way as the day 0 plate mentioned above.
Endpoint: IC50

# Compound, Test value
measured = [
    ("Cc1nn(C)c2c1-c1cccc3c(CCCOc4cccc5c4CCCC5)c(C(=O)O)n(c13)CCCCOC2 (racemic) [Example 006]", "2.49e-05 M"),
    ("Cn1nc(COc2ccc(N3CCOCC3)cc2)c2c1COCCCCn1c(C(=O)O)c(CCCOc3cccc4ccccc34)c3cccc-2c31 (single isomer, unassigned; enantiomer 2)", "1.14e-05 M"),
    ("Cc1ccc2c(OCCCc3c(C(=O)O)n4c5c(cccc35)-c3c(nn(C)c3C)COCCCC4)cccc2c1 (single isomer, unassigned; enantiomer 2)", "> 3.3e-05 M"),
]

Prompt: Find IC50 for Cn1nc(COc2ccc(N3CCN(C(=O)C4CC4)CC3)cc2)c2c1COCCCCn1c(C(=O)O)c(CCCOc3cccc4ccccc34)c3cccc-2c31 (single isomer, unassigned; enantiomer 2) on A2780 and write it down.
Response: 1.43e-05 M

Prompt: Please report IC50 with A2780 for item Cn1nc(CN2CCCC2=O)c2c1COCCCCn1c(C(=O)O)c(CCCOc3cccc4ccccc34)c3cccc-2c31 (single isomer, unassigned; enantiomer 1) .
Response: > 3.3e-05 M

Prompt: System A2780. Read-out IC50. Item Cc1c2c(nn1C)COCCCCn1c(C(=O)O)c(CCCOc3cccc4cc(Cl)ccc34)c3cccc-2c31 (single isomer, unassigned) . Report value.
Response: 1.33e-05 M

Prompt: Output reported IC50 of the compound CN1CCCn2c(C(=O)O)c(CCCOc3cccc4ccccc34)c3cccc(c32)-c2c(COc3ccc(C4CCOCC4)cc3)nn(C)c2C1 (single isomer, unassigned) on A2780.
Response: 1.16e-05 M

Prompt: GET IC50 | system: A2780 | item: Cc1nn(C)c2c1-c1cccc3c(CCCOc4cccc5ccccc45)c(C(=O)O)n(c13)CCCOC2 (racemic) [Example 043]
Response: 2.6e-05 M

Prompt: Provide A2780 IC50 reading for Cc1c2c(nn1C)CN(C)CCCCn1c(C(=O)O)c(CCCOc3cccc4ccccc34)c3cccc-2c31 (single isomer, unassigned; enantiomer 2) [Example 069] .
Response: > 3.3e-05 M

Prompt: Report measured IC50 on A2780; entry: Cc1ccc2c(C(C)CCOc3cccc4cc(F)ccc34)c(C(=O)O)n3c2c1-c1c(nn(C)c1C)COCCCC3 (single isomer, unassigned) [Example 279]
Response: 7.5e-06 M

Prompt: Answer with IC50 of CCCc1nn(C)c2c1-c1c(C)ccc3c(CCCOc4cccc5ccccc45)c(C(=O)O)n(c13)CCCCOC2 (single isomer, unassigned; enantiomer 2) [Example 189] measured for A2780.
Response: 1.78e-05 M

---

Test system: SUDHL10
Experiment: Induction of caspase-3/7 activity (Caspase-Glo 3/7), SUDHL10
Type: cell-based
Conditions: Homo sapiens, SU-DHL10, 3 h, caspase-3/7 induction, SUDHL10 cells, 3 h treatment; median
Endpoint: log10(EC50) (log10 of the value in µM)
Field: value | Transform: log10 | Quantity: EC50 | Unit: µM

Consider the reported log10(EC50) for these compounds:
# Compound, Experimental system, Endpoint, Test value
data = [
    ("CCCc1nn(C)c2c1-c1c(C)ccc3c(CCCOc4cccc5ccccc45)c(C(=O)O)n(c13)CCCCOC2 (racemic)", "SUDHL10", "log10(EC50)", 1.12),
    ("Cn1nc(COc2ccccc2)c2c1COCCCCn1c(C(=O)O)c(CCCOc3cccc4ccccc34)c3cccc-2c31 (single isomer, unassigned)", "SUDHL10", "log10(EC50)", 1.32),
    ("COC1(c2ccc(OCc3nn(C)c4c3-c3cccc5c(CCCOc6cccc7ccccc67)c(C(=O)O)n(c35)CCCCOC4)cc2)CCOCC1 (racemic)", "SUDHL10", "log10(EC50)", 1.24),
    ("CCCc1nn(C)c2c1-c1c(C)ccc3c(CCCOc4cccc5ccccc45)c(C(=O)O)n(c13)CCCN(C)C2 (racemic)", "SUDHL10", "log10(EC50)", 0.92),
    ("Cn1nc2c(c1OC(F)F)-c1cccc3c(CCCOc4cccc5ccccc45)c(C(=O)O)n(c13)CCCCOC2 (racemic) [Example 234]", "SUDHL10", "log10(EC50)", 1.50),
]

Prompt: Identify the reported log10(EC50) for the following entry. COc1c2c(nn1C)COCCCCn1c(C(=O)O)c(CCCOc3cccc4ccccc34)c3cccc-2c31 (racemic)
Response: 1.06

Prompt: State its log10(EC50): Cc1nn(C)c2c1-c1cccc3c(CCCOc4cccc5ccccc45)c(C(=O)O)n(c13)CCCCOC2 (racemic) [Example 1-33]
Response: 1.14

Prompt: Using the record for Cn1nc(COc2ccc(N3CCN(S(=O)(=O)C4CC4)CC3)cc2)c2c1COCCCCn1c(C(=O)O)c(CCCOc3cccc4ccccc34)c3cccc-2c31 (racemic) , state its measured log10(EC50).
Response: -0.19

Prompt: Give the reported value of log10(EC50) for this record: CC(=O)N1CCN(c2ccc(OCc3nn(C)c4c3-c3cccc5c(CCCOc6cccc7ccccc67)c(C(=O)O)n(c35)CC=CCOC4)cc2)CC1 (racemic)
Response: 1.35
